The reader will find reported inhibition at 0.1 µM values listed item by item below.
Target: aldose reducing enzyme (Homo sapiens, UniProt P15121)
Assay: Aldose reducing enzyme inhibiting activity (method of Hayman et al.)
Format: biochemical, Recombinant
Details: 1.0×10^-7 mol concentration level of the tested compound; human recombinant enzyme; read-out: Inhibition rate (%)
ASSAY ENDPOINT: inhibition at 0.1 µM (%)

{"CHEMICAL STRING": "CC(=C1SC(=NC#N)NC1=O)c1ccc2ccccc2c1", "TEST TARGET": "aldose reducing enzyme (Homo sapiens, UniProt P15121)", "RESULT VALUE": 64}
{"CHEMICAL STRING": "CCC(=C1SC(=NC#N)NC1=O)c1ccccc1", "TEST TARGET": "aldose reducing enzyme (Homo sapiens, UniProt P15121)", "RESULT VALUE": 12}
{"CHEMICAL STRING": "CC(=Cc1ccccc1)C=C1SC(=NC#N)N(C)C1=O", "TEST TARGET": "aldose reducing enzyme (Homo sapiens, UniProt P15121)", "RESULT VALUE": 12}
{"CHEMICAL STRING": "N#CN=C1NC(=O)C(=Cc2ccc3ccccc3c2)S1", "TEST TARGET": "aldose reducing enzyme (Homo sapiens, UniProt P15121)", "RESULT VALUE": 44}
{"CHEMICAL STRING": "N#CN=C1NC(=O)C(=CC=Cc2ccccc2)S1", "TEST TARGET": "aldose reducing enzyme (Homo sapiens, UniProt P15121)", "RESULT VALUE": 44}
{"CHEMICAL STRING": "COc1ccc2cc(C=C3SC(=NC#N)NC3=O)ccc2c1", "TEST TARGET": "aldose reducing enzyme (Homo sapiens, UniProt P15121)", "RESULT VALUE": 68}
{"CHEMICAL STRING": "COc1cc(C=C2SC(=NC#N)NC2=O)ccc1O", "TEST TARGET": "aldose reducing enzyme (Homo sapiens, UniProt P15121)", "RESULT VALUE": 100}
{"CHEMICAL STRING": "CC(=Cc1ccccc1)C=C1SC(=NC#N)N(CC(=O)O)C1=O", "TEST TARGET": "aldose reducing enzyme (Homo sapiens, UniProt P15121)", "RESULT VALUE": 100}
{"CHEMICAL STRING": "Cc1cccc(C=C2SC(=NC#N)NC2=O)c1", "TEST TARGET": "aldose reducing enzyme (Homo sapiens, UniProt P15121)", "RESULT VALUE": 52}
{"CHEMICAL STRING": "CC(=Cc1ccccc1)C=C1SC(=NC#N)NC1=O", "TEST TARGET": "aldose reducing enzyme (Homo sapiens, UniProt P15121)", "RESULT VALUE": 72}
{"CHEMICAL STRING": "N#CN=C1NC(=O)C(=Cc2ccccc2)S1", "TEST TARGET": "aldose reducing enzyme (Homo sapiens, UniProt P15121)", "RESULT VALUE": 32}
{"CHEMICAL STRING": "N#CN=C1NC(=O)C(=Cc2cccc3ccccc23)S1", "TEST TARGET": "aldose reducing enzyme (Homo sapiens, UniProt P15121)", "RESULT VALUE": 20}
{"CHEMICAL STRING": "COc1ccccc1C=CC=C1SC(=NC#N)NC1=O", "TEST TARGET": "aldose reducing enzyme (Homo sapiens, UniProt P15121)", "RESULT VALUE": 84}
{"CHEMICAL STRING": "N#CN=C1NC(=O)C(=Cc2ccc3c(c2)OCO3)S1", "TEST TARGET": "aldose reducing enzyme (Homo sapiens, UniProt P15121)", "RESULT VALUE": 44}
